- Tested on: LOX IMVI melanoma
- Assay summary: NCI-60 one-dose screen, 48 h (100 = growth as untreated, 0 = no growth, -100 = all killed)
- Test conditions: 10 µM unless noted
- Experimental: Growth inhibition of the LOX IMVI human tumor cell line is measured as a screen for anti-cancer activity. Cells are grown in 96 well plates and exposed to the test compound for 48 hours. Compounds are tested at a single concentration, which is 10^-5 M for most compounds. The reported endpoint is percent growth (GI% or GIPRCNT), where numbers from 0 - 100% represent growth inhibition, and numbers from -100% - 0 represent cell death. For example, a value of 40 represents 60% growth inhibition. […]
This is part of a sample that, as a whole, favours compounds with a hit. Of some 83,000 tested, about 20% had one in any assay.
Metric name: growth (%)
Give bare numbers, in %.

CN(C)c1ccc(/C=N/N=C(N)N)cc1    70.5
COc1ccc(/C=C/C(=O)c2ccc(NC(=O)CSc3nnc(-c4cc(OC)c(OC)c(OC)c4)o3)cc2)cc1    -69.4

// batch mode: one growth value per listed entry
1. NS(=O)(=O)c1ccc(Nc2nc(O)c(/C=C3\C=Nc4ccccc43)s2)cc1
2. CC1CCc2cc(F)cc3c(=O)c(C(=O)O)cn1c23 (centres undefined)
3. COc1cc(NC(C)CCCN2C(=O)c3ccccc3C2=O)c2nccc(C)c2c1OC (centres undefined)
4. Cc1ccc2oc(=O)cc(C3C(C#N)=C(N)Oc4c3ccc3ccccc43)c2c1 (centres undefined)
5. Nc1nccc(=S)[nH]1
6. O=S(=O)(O)c1ccc(F)cc1

Result block:
1: 97.3; 2: 69.1; 3: 82.8; 4: 75.4; 5: 100; 6: 98.9

----------
- System: COLO 205 colon
- Assay summary: NCI-60 one-dose screen, 48 h
- Test conditions: 10 µM unless noted
About 83,000 compounds went through this panel and 20% of them were active in at least one assay; those are over-represented in the sample as a whole. Active and inactive are the calls of the source. Rule for the calls: active = growth percent below 10; inactive = the rest.
Select the matching outcome among T = active, F = inactive

CS(=O)(=O)Nc1cccc(-c2ccc3ncnc(Nc4ccc(F)c(Cl)c4)c3c2)c1    T
C=C1C(=O)O[C@H]2[C@H]1CC/C(CNC(=O)/C1=C/CC[C@@]3(C)O[C@H]3[C@H]3OC(=O)C(=C)[C@@H]3CC1)=C\CC[C@@]1(C)O[C@@H]21    F
COc1ccccc1C(OC(C)=O)OC(C)=O    F
Nc1nc(Cl)c2c(C(F)(F)F)cn(CC3CCNCC3)c2n1    F
C#CCn1c(-c2cc(OC)c(OC)cc2Br)nc(-c2ccccc2)c1-c1ccccc1    T

# input for lookup
Query block: // return assay outcome for O=C(NOC1OC(CO)C(O)C(O)C1O)Nc1ccccc1 (stereo not drawn)
Result block: F

----------
Assign growth to each entry below.
- Test system: T-47D breast
- Assay summary: NCI-60 one-dose screen, 48 h (100 = growth as untreated, 0 = no growth, -100 = all killed)
- Test conditions: 10 µM unless noted
Compounds without any hit were thinned out: in the full panel of roughly 83,000, 20% have a hit.
One number for each entry, in %.

// worked examples, growth included
COc1ccc(-c2ccc(NC(=O)Nc3ccc(Cl)c(C(F)(F)F)c3)c(C)n2)cc1    21.5
C[C@]12CC[C@@H]3c4ccc(O)c(N)c4CC[C@H]3[C@@H]1CC[C@@H]2O    124
CCCCCCCC(=O)SCC/C=C/[C@@H]1CC(=O)NCc2nc(cs2)C2=N[C@@](C)(CS2)C(=O)N[C@@H](C(C)C)C(=O)N1    -25.6
Clc1ccc(CN2COc3c(ccc4cccnc34)C2)cc1Cl    5.72

Turning to the following molecule.
Query block: Sample CCOc1ccc(Cc2nccc3cc(OCC)c(OCC)cc23)cc1OCC — what was its growth?
Result block: 39.1

----------
- Tested on: A549/ATCC NSCLC
- Assay summary: NCI-60 one-dose screen, 48 h
- Test conditions: 10 µM unless noted
About 83,000 compounds went through this panel and 20% of them were active in at least one assay; those are over-represented in the sample as a whole. Calls of active or inactive are those of the source. The calls were made as follows: active = growth percent below 10; inactive = the rest.
Outcomes you can answer with include only these: active, inactive

O=C(Nc1ccc(-n2cc(-c3ccncc3)c(-c3ccc(O)c(Cl)c3)n2)cc1)Nc1ccc(Cl)c(C(F)(F)F)c1    inactive
Nc1ncnc2c1c(-c1ccc(Oc3ccccc3)cc1)nn2C[C@H]1SSC[C@@H]1O    inactive
COc1ccc(-c2nn(-c3ccc(NC(=O)c4ccc(Cl)c(C(F)(F)F)c4)cc3)cc2-c2ccncc2)cc1Cl    inactive
CC(=S)Nc1ccccc1    inactive
Nc1nccc2c1ccn2-c1cccc(NC(=O)c2ccc(N3CCOCC3)c(C(F)(F)F)c2)c1    inactive

Query block: Could you kindly confirm the outcome this assay logged for CCn1c(SC)nnc1-c1cc2c([nH]c3ccccc32)c(-c2cccc(O)c2)n1 ?
Result block: inactive

Query block: Please state the recorded outcome for this compound: COC(=O)c1oc2c(C(C)=O)c(OCCCN(C)C)ccc2c1C
Result block: inactive

Query block: What call does the record list for CC(C)(CCN=C(N)Nc1ccccn1)c1ccc(C(F)(F)F)cc1 ?
Result block: inactive

Query block: Name the outcome recorded for CN(C)c1ccc(/C=N/N=C(N)N)cc1 in the assay.
Result block: inactive

Query block: Identify the outcome logged in this assay for the compound shown: CNC(=O)NN
Result block: inactive

Query block: // param item: CCOC(=O)n1cnc2c(Cl)ncnc21 ; yields the recorded call
Result block: inactive

Query block: Please let me know the test result on file for O=C(Cn1c2ccccc2c2ccncc21)N/N=C\c1ccc2ccccc2c1 .
Result block: active

----------
Hi there, I'd appreciate the recorded growth for every entry that follows.
- Tested on: DU-145 prostate
- Assay summary: NCI-60 one-dose screen, 48 h (100 = growth as untreated, 0 = no growth, -100 = all killed)
- Test conditions: 10 µM unless noted
- Protocol: Cells are grown in 96 well plates and exposed to the test compound for 48 hours. Compounds are tested at a single concentration, which is 10^-5 M for most compounds. The reported endpoint is percent growth (GI% or GIPRCNT), where numbers from 0 - 100% represent growth inhibition, and numbers from -100% - 0 represent cell death. For example, a value of 40 represents 60% growth inhibition. A value of 0 means no net growth occurred over the course of the experiment. […]
About 83,000 compounds went through this panel and 20% of them were active in at least one assay; those are over-represented in the sample as a whole.
Give bare numbers, in %.

Cc1cn(C2CC(F)C(CO)O2)c(=O)[nH]c1=O (stereo not given)    108
CC(=O)n1cc(/C=C2\N=C(c3ccc(Cl)cc3)N(c3ccc(S(=O)(=O)Nc4nccs4)cc3)C2=O)c2ccccc21    102
Nc1ncnc2c1c(C(F)(F)F)cn2[C@@H]1O[C@H](CO)[C@@H](O)[C@H]1O    17.9

For every item below, please supply its growth.
1. CCN(CC)c1ccc(C2CC(c3cc(OC)c(OC)c(OC)c3)=NN2)cc1 (stereo not given)
2. S=C=NP1(N=C=S)=NP(N=C=S)(N=C=S)=NP(N=C=S)(N=C=S)=NP(N=C=S)(N=C=S)=N1 (stereo not given)
3. CN(C)c1ncc(C#Cc2c(F)cccc2F)c2ccccc12
4. O=C(COc1ccc(Cl)cc1)N1CCN(Cc2ccc3c(c2)OCO3)CC1
5. Nc1n[nH]c2cccc(C#Cc3cccc(NC(=O)c4cccc(C(F)(F)F)c4)c3)c12
6. CCCCOc1c(N)cc(Cl)cc1C(=O)OCCN(CC)CC

Result block:
-36.1
113
97.4
113
48.5
116

Query block: Test system DU-145 prostate; read-out growth; what value for CCc1c(C)c2cc3nc(NCc4ccccc4)oc3c(C)c2oc1=O ?
Result block: 82.9

----------
- Tested on: UO-31 renal
- Assay summary: NCI-60 one-dose screen, 48 h (100 = growth as untreated, 0 = no growth, -100 = all killed)
- Test conditions: 10 µM unless noted
About 83,000 compounds went through this panel and 20% of them were active in at least one assay; those are over-represented in the sample as a whole.
Note to self: class = bucket of growth, per range A = under 70%, range B = from 70% up to 90%, range C = 90% and over

Some entries whose results are on file:
CN1CCN(CC(O)COc2c(Br)c(Br)c(Br)c3c2OC(C)(C)C3)CC1 (stereo not given)    range A
O=C(Nc1cccc(-n2ccc3c(NC(=O)c4ccccc4)ncnc32)c1)Nc1ccc(Cl)c(C(F)(F)F)c1    range A
CC[C@@]1(O)C(=O)OCc2c1cc1n(c2=O)Cc2c-1nc1ccccc1c2/C=N/OC(C)(C)C    range A
N#Cc1c(N)nc2c(c1N)C(c1ccc(Cl)cc1)C1=C(CCCC1=O)N2c1sc2c(c1C#N)CCCC2 (stereo not given)    range C
O=C(N/N=C1\SCC(=O)N1c1ccccc1)c1cc(-c2cc3ccccc3o2)nn1-c1ccccc1    range C

Query block: Into which category would you place O=c1cc(Cl)[nH]c(=O)[nH]1 ?
Result block: range C

Query block: Into which category would you place CN(C)c1ccc(/C=N/N=C(N)N)cc1 ?
Result block: range B
